biological target: UniProtKB P81908; assay: Inhibition of equine serum BuChE using butyrylthiocholine iodide as substrate preincubated with enzyme for 6 mins followed by substrate addition and measured for 180 secs by Ellman's method
Sequence (P81908 whole entry): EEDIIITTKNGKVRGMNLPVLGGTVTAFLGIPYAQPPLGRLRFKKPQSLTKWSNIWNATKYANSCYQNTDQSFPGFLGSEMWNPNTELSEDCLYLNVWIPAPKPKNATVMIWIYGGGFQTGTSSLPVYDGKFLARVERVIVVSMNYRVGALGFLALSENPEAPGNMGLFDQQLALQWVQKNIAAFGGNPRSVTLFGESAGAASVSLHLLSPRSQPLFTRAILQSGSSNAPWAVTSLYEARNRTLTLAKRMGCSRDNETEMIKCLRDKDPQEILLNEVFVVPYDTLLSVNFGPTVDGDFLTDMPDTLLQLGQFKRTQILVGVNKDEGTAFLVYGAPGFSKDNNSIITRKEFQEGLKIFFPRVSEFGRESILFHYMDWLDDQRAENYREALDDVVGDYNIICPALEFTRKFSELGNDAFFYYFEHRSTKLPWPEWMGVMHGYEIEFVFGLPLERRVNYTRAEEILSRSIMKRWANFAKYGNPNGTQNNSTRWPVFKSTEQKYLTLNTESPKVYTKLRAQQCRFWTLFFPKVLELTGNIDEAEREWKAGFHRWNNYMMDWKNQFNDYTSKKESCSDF
pIC50: −log10 of the molar value.
Classification scheme (pIC50): interval 1 = under 5, interval 2 = from 5 up to 6, interval 3 = 6 and over

// known answers, use as guide
| itemSmiles | class |
| --- | --- |
| O=C(NC1CCN(Cc2ccccc2)CC1)c1cc(=O)c2ccccc2o1 | interval 1 |
| O=C(NCCC1CCN(Cc2ccccc2)CC1)c1coc2ccc(OCc3ccccc3)cc2c1=O | interval 2 |
| COc1ccc2c(=O)c(C(=O)NCCC3CCN(Cc4ccccc4)CC3)coc2c1 | interval 3 |
| O=C(NCCC1CCN(Cc2ccccc2)CC1)c1coc2ccccc2c1=O | interval 3 |
| COc1ccc2occ(C(=O)NC3CCN(Cc4ccccc4)CC3)c(=O)c2c1 | interval 1 |
| O=C(NCCC1CCN(Cc2ccccc2)CC1)c1cc(=O)c2ccccc2o1 | interval 2 |
| O=C(NC1CCN(Cc2ccccc2)CC1)c1coc2ccccc2c1=O | interval 1 |
| Cc1ccc2occ(C(=O)NC3CCN(Cc4ccccc4)CC3)c(=O)c2c1 | interval 1 |

Ask: The entry to classify is O=C(NC1CCN(Cc2ccccc2)CC1)c1coc2cc(Br)ccc2c1=O ; which class holds it?
Result: interval 1

Ask: Which bin, given its pIC50, does COc1ccc2occ(C(=O)NCCC3CCN(Cc4ccccc4)CC3)c(=O)c2c1 occupy?
Result: interval 3
